Assay: Plasma levels in neuroblastoma patients given 4-HPR/LXS oral powder
Format: in vivo
Conditions: human, 595 mg/m2 per day
MEASURED_QUANTITY: concentration at 2 h (µM)
Express it in µM; write the number only.

So, CC1=C(/C=C/C(C)=C/C=C/C(C)=C/C(=O)Nc2ccc(O)cc2)C(C)(C)CCC1 [4-HPR, N-(4-hydroxyphenyl)retinamide] ? Its concentration at 2 h was 9.69

* * *

Assay: Plasma levels in neuroblastoma patients given 4-HPR/LXS oral powder
Assay type: in vivo
Conditions: human, 595 mg/m2 per day
MEASURED_QUANTITY: concentration at 4 h (µM)
Express it in µM; write the number only.

So, CC1=C(/C=C/C(C)=C/C=C/C(C)=C/C(=O)Nc2ccc(O)cc2)C(C)(C)CCC1 [4-HPR, N-(4-hydroxyphenyl)retinamide] ? Its concentration at 4 h was 12.8

* * *

Assay: Plasma levels in neuroblastoma patients given 4-HPR/LXS oral powder
Type: in vivo
Details: human, 595 mg/m2 per day
MEASURED_QUANTITY: concentration at 0 h (µM)
Express it in µM; write the number only.

So, CC1=C(/C=C/C(C)=C/C=C/C(C)=C/C(=O)Nc2ccc(O)cc2)C(C)(C)CCC1 [4-HPR, N-(4-hydroxyphenyl)retinamide] ? Its concentration at 0 h was 7.04

* * *

Experiment: Plasma levels in neuroblastoma patients given 4-HPR/LXS oral powder
Type: in vivo
Conditions: human, 595 mg/m2 per day
MEASURED_QUANTITY: concentration at 6 h (µM)
Express it in µM; write the number only.

So, CC1=C(/C=C/C(C)=C/C=C/C(C)=C/C(=O)Nc2ccc(O)cc2)C(C)(C)CCC1 [4-HPR, N-(4-hydroxyphenyl)retinamide] ? Its concentration at 6 h was 13.1

* * *

Test: 4-HPR and 4-MPR metabolism kinetics in pooled mouse liver microsomes
Assay type: in vitro ADME
Conditions: pH 7.4
MEASURED_QUANTITY: Km at 60 min (µM)
Express it in µM; write the number only.

So, CC1=C(/C=C/C(C)=C/C=C/C(C)=C/C(=O)Nc2ccc(O)cc2)C(C)(C)CCC1 [4-HPR, N-(4-hydroxyphenyl)retinamide] ? Its Km at 60 min was 25.8
